# assay system: c-kit WT (Homo sapiens (Human))
# Sequence (P10721 26-976): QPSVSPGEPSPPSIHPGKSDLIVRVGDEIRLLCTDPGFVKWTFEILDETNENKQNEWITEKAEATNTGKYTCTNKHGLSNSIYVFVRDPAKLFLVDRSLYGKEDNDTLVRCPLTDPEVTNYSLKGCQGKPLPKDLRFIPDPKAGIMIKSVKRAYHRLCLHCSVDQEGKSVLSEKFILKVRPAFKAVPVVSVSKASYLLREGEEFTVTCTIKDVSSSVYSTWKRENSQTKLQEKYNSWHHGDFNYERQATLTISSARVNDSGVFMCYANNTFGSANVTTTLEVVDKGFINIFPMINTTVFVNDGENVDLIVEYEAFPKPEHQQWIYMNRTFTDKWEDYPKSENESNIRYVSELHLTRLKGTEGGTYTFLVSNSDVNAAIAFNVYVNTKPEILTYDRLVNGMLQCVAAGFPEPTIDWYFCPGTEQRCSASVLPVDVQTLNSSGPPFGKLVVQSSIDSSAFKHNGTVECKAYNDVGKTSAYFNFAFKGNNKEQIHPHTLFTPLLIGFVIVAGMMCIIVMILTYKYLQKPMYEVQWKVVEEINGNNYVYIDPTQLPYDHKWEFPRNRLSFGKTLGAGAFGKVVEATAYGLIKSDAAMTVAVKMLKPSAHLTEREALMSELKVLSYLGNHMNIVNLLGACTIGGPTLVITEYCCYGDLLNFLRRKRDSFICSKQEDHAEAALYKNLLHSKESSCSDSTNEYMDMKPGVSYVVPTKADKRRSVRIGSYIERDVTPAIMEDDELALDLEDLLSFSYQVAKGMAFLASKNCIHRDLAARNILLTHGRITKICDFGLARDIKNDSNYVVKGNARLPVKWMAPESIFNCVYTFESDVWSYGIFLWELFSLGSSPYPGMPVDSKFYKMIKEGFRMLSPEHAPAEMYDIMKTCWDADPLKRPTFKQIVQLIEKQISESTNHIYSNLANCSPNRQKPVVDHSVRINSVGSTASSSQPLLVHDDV
# method: Proliferation assay (CellTiter-Blue) on BaF3 Kit WT cell line
# Type: cell-based
# experimental context: BaF3 Kit WT cell line (murine Ba/F3 expressing Human Kit WT, with murine SCF), 48 hours
pIC50: −log10 of the molar value.
measured parameter: pIC50

Illustrative cases are given below, each with its answer.
>  <test smiles>
Cc1cc2c(cc1Nc1nc(-c3ccncc3)cs1)nc(-c1cccc(N3CCN(C)CC3)c1)n2C

>  <pIC50>
5.00 to 6.00

$$$$
>  <test smiles>
Cn1c(-c2cccc(OC(F)(F)F)c2)nc2cc(Nc3nc(-c4cccnc4)cs3)ccc21

>  <pIC50>
5.00 to 6.00

$$$$

Query block: Param readout = pIC50; param system = c-kit WT (Homo sapiens (Human)); param query = "Cc1cc2nc(-c3cccc(C#N)c3)[nH]c2cc1Nc1nc(-c2cccnc2)cs1" ; response: value
Result block: ≥ 6.00

Query block: Okay, and "Cc1cc2c(cc1Nc1nc(-c3ccc(C#N)cc3)cs1)nc(-c1cccc(C(C)(C)C)c1)n2C" ?
Result block: ≥ 6.00

Query block: Okay, and "Cc1cc2nc(-c3cccc(OC(F)(F)F)c3)n(C)c2cc1Nc1nc(-c2cccnc2)cs1" ?
Result block: 5.00 to 6.00

Query block: Okay, and "Cc1ccc(-c2nc3cc(C)c(Nc4nc(-c5cccnc5)cs4)cc3[nH]2)s1" ?
Result block: ≥ 6.00

Query block: Okay, and "Cc1cc2nc(-c3cccc(C#N)c3)[nH]c2cc1Nc1nccc(-c2cccnc2)n1" ?
Result block: 5.00 to 6.00

Query block: Okay, and "Cc1cc2c(cc1Nc1nc(-c3cccnc3)cs1)nc(-c1cccc(C(C)C)c1)n2C" ?
Result block: ≥ 6.00

Query block: Okay, and "Cc1cc2nc(-c3cncc(C(F)(F)F)c3)[nH]c2cc1Nc1nccc(-c2cccnc2)n1" ?
Result block: 5.00 to 6.00

Query block: Okay, and "Cc1cc2nc(-c3cccc(CN4CCN(C)CC4)c3)[nH]c2cc1Nc1nc(-c2ccncc2)cs1" ?
Result block: 5.00 to 6.00
